- Measured Target: Proton Pump (H^+/K^+-ATPase) (Sus scrofa, UniProt P19156)
- Sequence (P19156 2-1034 limits assumed): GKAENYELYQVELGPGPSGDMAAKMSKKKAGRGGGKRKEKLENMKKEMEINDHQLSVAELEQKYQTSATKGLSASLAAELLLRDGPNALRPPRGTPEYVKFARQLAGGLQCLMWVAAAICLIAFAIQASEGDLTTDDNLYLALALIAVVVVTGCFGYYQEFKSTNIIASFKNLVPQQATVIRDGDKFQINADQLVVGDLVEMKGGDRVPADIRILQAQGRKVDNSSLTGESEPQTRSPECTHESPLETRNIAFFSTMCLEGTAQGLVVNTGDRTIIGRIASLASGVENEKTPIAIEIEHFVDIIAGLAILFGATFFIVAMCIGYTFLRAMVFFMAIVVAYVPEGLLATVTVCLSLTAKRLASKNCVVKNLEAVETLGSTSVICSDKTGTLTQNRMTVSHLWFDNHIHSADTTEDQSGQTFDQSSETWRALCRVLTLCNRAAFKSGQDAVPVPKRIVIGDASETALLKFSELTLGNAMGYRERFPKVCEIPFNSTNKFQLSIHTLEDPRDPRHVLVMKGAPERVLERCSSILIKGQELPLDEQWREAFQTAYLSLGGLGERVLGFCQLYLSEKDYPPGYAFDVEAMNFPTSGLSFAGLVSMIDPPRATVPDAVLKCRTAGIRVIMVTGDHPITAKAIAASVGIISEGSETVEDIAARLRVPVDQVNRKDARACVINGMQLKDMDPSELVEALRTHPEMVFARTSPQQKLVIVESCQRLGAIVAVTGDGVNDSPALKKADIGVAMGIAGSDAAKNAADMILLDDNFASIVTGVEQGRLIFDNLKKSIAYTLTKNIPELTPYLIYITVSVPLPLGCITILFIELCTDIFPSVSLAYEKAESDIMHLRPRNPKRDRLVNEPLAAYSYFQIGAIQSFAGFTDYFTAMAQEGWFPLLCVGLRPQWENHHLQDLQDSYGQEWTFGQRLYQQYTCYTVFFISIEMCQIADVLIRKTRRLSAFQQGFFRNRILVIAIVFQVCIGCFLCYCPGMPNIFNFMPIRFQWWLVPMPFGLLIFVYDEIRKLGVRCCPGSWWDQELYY
- Sequence (P18434 whole entry partner): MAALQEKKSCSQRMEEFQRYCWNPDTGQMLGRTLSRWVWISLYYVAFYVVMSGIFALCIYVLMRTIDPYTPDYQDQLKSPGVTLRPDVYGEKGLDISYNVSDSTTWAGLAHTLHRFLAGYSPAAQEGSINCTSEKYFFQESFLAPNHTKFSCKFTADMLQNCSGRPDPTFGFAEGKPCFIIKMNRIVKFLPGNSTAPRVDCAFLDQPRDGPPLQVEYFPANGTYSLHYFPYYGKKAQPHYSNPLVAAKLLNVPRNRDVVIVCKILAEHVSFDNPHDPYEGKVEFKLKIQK
- Measurement Description: Inhibitory effects on proton pump (H^+/K^+-ATPase) activity
- Setup Conditions: hog gastric vesicles; K^+ stimulated H^+/K^+-ATPase activity; 30 minutes at 37° C.
pIC50: −log10 of the molar value. Structures can show the parent of a compound that is named as a salt.

{"columns": ["Compound", "Measured Target", "pIC50"],
 "data": [
  ["C=CCn1c(C)c(C)c2ccnc(N3CCc4ccccc4C3CC)c21 (stereo not shown) [Example 577, hydrochloride]", "Proton Pump (H^+/K^+-ATPase) (Sus scrofa, UniProt P19156)", 6.85],
  ["COCCn1c(C)c(C)c2ccnc(N3CCc4cc(F)ccc4C3C)c21 (stereo not shown) [Example 564, hydrochloride]", "Proton Pump (H^+/K^+-ATPase) (Sus scrofa, UniProt P19156)", 7.09],
  ["CCCn1c(C)c(C)c2ccnc(NCc3ccccc3Cl)c21 [Example 231, hydrochloride]", "Proton Pump (H^+/K^+-ATPase) (Sus scrofa, UniProt P19156)", 6.86],
  ["CSc1ccc(-c2nccc3c(C)c(C)n(Cc4cccc(F)c4)c23)cc1 [Example 272, hydrochloride]", "Proton Pump (H^+/K^+-ATPase) (Sus scrofa, UniProt P19156)", 6.66]
]}

----------
compounds and their reported pIC50
- Measured Target: Proton Pump (H^+/K^+-ATPase) (Sus scrofa)
- Measurement Description: Inhibitory effects on proton pump (H^+/K^+-ATPase) activity
- Setup Conditions: hog gastric vesicles; K^+ stimulated H^+/K^+-ATPase activity; 30 minutes at 37° C.
pIC50: −log10 of the molar value. Counter-ions that a name gives are not always drawn.
Property Name: pIC50

{"columns": ["Compound", "Measured Target", "Experimental Value"],
 "data": [
  ["CCNCc1cc2c(C)c(C)n(Cc3cccc(F)c3)c2c(N2CCc3ccccc3C2)n1 [Example 868, hydrochloride]", "Proton Pump (H^+/K^+-ATPase) (Sus scrofa)", 7.41],
  ["Cc1c(CC#N)c2ccnc(N3CCc4ccccc4C3)c2n1Cc1ccccc1 [Example 624, hydrochloride]", "Proton Pump (H^+/K^+-ATPase) (Sus scrofa)", 8.00],
  ["Cc1c(C)n(Cc2ccc(C(C)(C)C)cc2)c2c(N3CCc4ccccc4C3)nc(C(=O)N3CCN(C)CC3)cc12 [Example 835, hydrochloride]", "Proton Pump (H^+/K^+-ATPase) (Sus scrofa)", 6.87],
  ["COCCn1c(C)c(C)c2ccnc(NCc3ccccc3C)c21 [Example 213, hydrochloride]", "Proton Pump (H^+/K^+-ATPase) (Sus scrofa)", 6.51]
]}

----------
compounds and their reported pIC50
- Measured Target: Proton Pump (H^+/K^+-ATPase) (Sus scrofa, UniProt P19156)
- Measurement Description: Inhibitory effects on proton pump (H^+/K^+-ATPase) activity
- Setup Conditions: hog gastric vesicles; K^+ stimulated H^+/K^+-ATPase activity; 30 minutes at 37° C.
pIC50: −log10 of the molar value. Counter-ions that a name gives are not always drawn.

{"columns": ["Compound", "pIC50"],
 "data": [
  ["CCn1nnnc1-c1cc2c(C)c(C)n(Cc3cccc(Cl)c3)c2c(N2CCc3ccccc3C2)n1 [Example 854]", 6.55],
  ["Cc1ccc(-c2nccc3c(C)c(C)n(Cc4cccc(F)c4)c23)cc1 [Example 284, hydrochloride]", 6.57],
  ["Cc1c(C)n(Cc2cccc(F)c2)c2c(N3CCc4ccccc4C3)nc(C=O)cc12 [Example 864, hydrochloride]", 6.67],
  ["Cc1c(C)n(CC2CC2)c2c(CCc3ccccc3)nccc12 [Example 453, hydrochloride]", 6.47],
  ["C=Cc1ccc(-c2nccc3c(C)c(C)n(Cc4ccc5ccccc5c4)c23)cc1 [Example 257, hydrochloride]", 6.57],
  ["COc1cccc(Cn2c(C)c(C)c3ccnc(N(C)Cc4ccc(F)cc4)c32)c1 [Example 151, hydrochloride]", 6.47],
  ["CCC1c2ccccc2CCN1c1nccc2c(C)c(C)n(Cc3csc(C)n3)c12 (stereo not shown) [Example 586, hydrochloride]", 6.48],
  ["C#CCn1c(C)c(C)c2ccnc(N3CCc4ccccc4C3)c21 [Example 506, hydrochloride]", 7.16],
  ["Cc1c(C)n(Cc2ccc(F)cc2)c2c(N(C)Cc3ccc(F)cc3)nccc12 [Example 155, hydrochloride]", 6.40],
  ["Cc1[nH]c2c(N3CCc4ccccc4C3)nccc2c1C.Cl [Example 468, hydrochloride]", 6.72],
  ["Cc1c(C)n(Cc2ccncc2)c2c(N3CCc4ccccc4C3)nccc12 [Example 518, hydrochloride]", 6.75],
  ["Cc1c(C)n(Cc2ccccn2)c2c(N3CCc4ccccc4C3)nccc12 [Example 517, hydrochloride]", 7.70],
  ["CC(C)=CCn1c(C)c(C)c2ccnc(CN(C)c3ccc(F)cc3)c21 [Example 119, hydrochloride]", 6.39],
  ["C=CCn1c(C)c(C)c2ccnc(N3CCc4ccccc4C3)c21.Cl [Example 484, hydrochloride]", 8.43],
  ["Cc1c(C)n(Cc2ccccc2)c2c(NCc3ccc(F)cc3)nc(C(=O)N3CCCCC3)cc12 [Example 908, hydrochloride]", 6.42],
  ["Cc1cccc(Cn2c(C)c(C)c3cc(C(=O)N4CCCCC4)nc(N4CCc5ccccc5C4)c32)c1 [Example 798, hydrochloride]", 6.66]
]}

----------
- Measured Target: Proton Pump (H^+/K^+-ATPase) (Sus scrofa)
- Measurement Description: Inhibitory effects on proton pump (H^+/K^+-ATPase) activity
- Setup Conditions: hog gastric vesicles; K^+ stimulated H^+/K^+-ATPase activity; 30 minutes at 37° C.
pIC50: −log10 of the molar value. Where a name gives a salt, the structure may show the parent alone.
If the reported pIC50 equals or exceeds 7, assign condition met. If not, assign condition not met.

{"columns": ["Compound", "Label Class"],
 "data": [
  ["Cc1ccc(-c2nccc3c(C)c(C)n(Cc4ccccc4)c23)cc1 [Example 281, hydrochloride]", "condition not met"],
  ["Cc1ccc(-c2nccc3c(C)c(C)n(Cc4ccc(Cl)cc4)c23)cc1 [Example 283, hydrochloride]", "condition not met"],
  ["C=CCn1c(C)c(C)c2cc(C(=O)O)nc(N3CCc4ccccc4C3)c21", "condition met"],
  ["Cc1ccc(-c2nccc3c(C)c(C)n(Cc4ccc(Cl)c(Cl)c4)c23)cc1 [Example 296, hydrochloride]", "condition not met"],
  ["C=CCn1c(C)c(C)c2ccnc(NCc3ccccc3)c21 [Example 176, hydrochloride]", "condition not met"],
  ["Cc1c(C)n(Cc2ccccc2)c2c(COc3ccc(F)cc3)nccc12 [Example 3, hydrochloride]", "condition met"]
]}

----------
molecules and their reported pIC50
- Measured Target: Proton Pump (H^+/K^+-ATPase) (Sus scrofa, UniProt P19156)
- Measurement Description: Inhibitory effects on proton pump (H^+/K^+-ATPase) activity
- Type: biochemical
- Setup Conditions: hog gastric vesicles; K^+ stimulated H^+/K^+-ATPase activity; 30 minutes at 37° C.
pIC50: −log10 of the molar value. Where a name gives a salt, the structure may show the parent alone.

{"columns": ["Molecule", "pIC50"],
 "data": [
  ["CSc1ccc(-c2nccc3c(C)c(C)n(Cc4ccc(F)cc4)c23)cc1 [Example 274, hydrochloride]", 6.38],
  ["COCCn1c(C)c(C)c2cc(C(=O)n3ccnc3)nc(N3CCc4ccccc4C3)c21 [Example 842, hydrochloride]", 6.32],
  ["C=CCn1c(C)c(C)c2ccnc(N3CCc4ccccc4C3)c21 [Example 486, tartrate]", 8.10],
  ["CCN1CCN(C(=O)c2cc3c(C)c(C)n(CC)c3c(N3CCc4ccccc4C3)n2)CC1 [Example 826, hydrochloride]", 7.80],
  ["C=CCn1c(C)c(C)c2ccnc(-c3ccc(F)cc3)c21 [Example 326, hydrochloride]", 6.51],
  ["CCc1c(C)c2ccnc(N3CCc4ccccc4C3)c2n1C [Example 609, hydrochloride]", 6.42],
  ["Cc1ccc(Cn2c(C)c(C)c3ccnc(CN(C)c4ccc(F)cc4)c32)cc1 [Example 117, hydrochloride]", 7.34],
  ["C=CCn1c(C)c(C)c2cc(C(=O)NC)nc(N3CCc4ccccc4C3)c21 [Example 757, hydrochloride]", 7.52]
]}

----------
- Measured Target: Proton Pump (H^+/K^+-ATPase) (Sus scrofa, UniProt P19156)
- Measurement Description: Inhibitory effects on proton pump (H^+/K^+-ATPase) activity
- Setup Conditions: hog gastric vesicles; K^+ stimulated H^+/K^+-ATPase activity; 30 minutes at 37° C.
pIC50: −log10 of the molar value. Structures can show the parent of a compound that is named as a salt.
molecules and their reported pIC50

{"columns": ["Molecule", "pIC50"],
 "data": [
  ["COCCn1c(C)c(C)c2ccnc(COc3ccc(F)cc3F)c21 [Example 34, hydrochloride]", 5.84],
  ["CCn1c(C)c(C)c2ccnc(NCc3ccccc3C)c21 [Example 225, hydrochloride]", 6.46],
  ["Cc1c(C)n(Cc2cccc(F)c2)c2c(-c3ccc4ccccc4c3)nccc12 [Example 405, hydrochloride]", 7.14],
  ["Cc1cccc(Cn2c(C)c(C)c3cc(C(=O)N4CCN(C)CC4)nc(N4CCc5ccccc5C4)c32)c1 [Example 820, hydrochloride]", 7.43],
  ["COc1cccc(Cn2c(C)c(C)c3ccnc(COc4ccc(Cl)cc4)c32)c1 [Example 45, hydrochloride]", 7.15],
  ["CCCn1c(C)c(C)c2ccnc(NCc3ccc(F)cc3)c21 [Example 228, hydrochloride]", 6.88],
  ["Cc1c(C)n(Cc2cccc(F)c2)c2c(N3CCc4ccccc4C3)nc(Cl)cc12 [Example 657, hydrochloride]", 6.62],
  ["Cc1c(C)n(CC2CC2)c2c(NCc3ccccc3)nccc12 [Example 185, hydrochloride]", 6.49],
  ["Cc1c(C)n(CC2CC2)c2c(COc3ccc(F)cc3F)nccc12 [Example 35, hydrochloride]", 6.07],
  ["C=CCn1c(C)c(C)c2cc(C(=O)N3CCOCC3)nc(N3CCc4ccccc4C3)c21 [Example 777, hydrochloride]", 8.80],
  ["Cc1c(C)n(Cc2ccc(Cl)s2)c2c(N3CCc4ccccc4C3)nccc12 [Example 514, hydrochloride]", 6.70],
  ["Cc1c(C)n(Cc2cccc(Cl)c2)c2c(N3CCc4ccccc4C3)nc(N)cc12 [Example 845, hydrochloride]", 6.54],
  ["Cc1c(C)n(Cc2ccccc2)c2c(N3CCc4ccccc4C3)nc(C(=O)N3CCOCC3)cc12 [Example 764]", 7.36],
  ["Cc1c(C)n(Cc2cccc(F)c2)c2c(N3CCc4ccccc4C3)nc(CF)cc12 [Example 885, hydrochloride]", 6.66],
  ["C=CCn1c(C)c(C)c2cc(C(=O)N3CCN(C)CC3)nc(N3CCc4ccccc4C3)c21 [Example 785, hydrochloride]", 9.15]
]}
